Would you kindly list composite z-score for each of these compounds?
Test system: Human papillomavirus type 1a protein E7 (residues 44-93)
EXPERIMENTAL PROTOCOL: HPV1a E7 fragment binders on microarrays, primary screen, biochemical, small-molecule microarray, residues 44-93, 635 nm fluorescence (AID 1108);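 note: E7 fragment applied at 1 µg/mL in TBST for 1 h at 4 C; score combines spot fluorescence with its signal to noise ratio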
TEST SETTINGS: small-molecule microarray binding, fluorescence 635 nm; higher = more signal
When you answer, write just the number.

Test system Human papillomavirus type 1a protein E7 (residues 44-93); read-out composite z-score; what value for COC(=O)[C@@]1(Cc2ccc(F)cc2)[C@H]2c3cc(C(=O)N(C)C)n(Cc4ccc(O)c(OC)c4)c3C[C@H]2CN1C(=O)c1ccccc1 ?
0.347

Which measured composite z-score belongs to O=C(NCCN1CCOCC1)[C@@H]1c2ccccc2C(=O)N(Cc2ccccc2)[C@H]1c1ccc(CO)cc1 , tested on Human papillomavirus type 1a protein E7 (residues 44-93)?
-0.639

Observed composite z-score on Human papillomavirus type 1a protein E7 (residues 44-93) for Cc1ccc([C@H]2C(C(=O)O)=C[C@@H](C(C)(C)C)N2S(=O)(=O)c2ccc(C)cc2)cc1 , please.
1.41

Form field - read-out: composite z-score; system: Human papillomavirus type 1a protein E7 (residues 44-93); submitted item: O=C1C2C=CC(C(O)c3ccc4c(c3)OCO4)N(Nc3ccccc3)C2C(=O)N1c1ccccc1 (stereo not drawn)
1.36

Please state recorded composite z-score (tested on Human papillomavirus type 1a protein E7 (residues 44-93)) of [N-]=[N+]=NC[C@H](Cc1ccccc1)NC(=O)c1ccccc1
-0.778

Human papillomavirus type 1a protein E7 (residues 44-93) / composite z-score / C=C(/C(=C/C[C@H](OC(=O)c1ccncc1)c1cccc(OCCO)c1)c1cnc2ccccc2c1)C(C)C : value?
0.589

Please state recorded composite z-score (tested on Human papillomavirus type 1a protein E7 (residues 44-93)) of O=C1[C@@]23C=C(Br)[C@H](C[C@@H]2COC3)[C@@]12CO2
0.368

Query composite z-score on Human papillomavirus type 1a protein E7 (residues 44-93) for C=CCC(OC(C)=O)[C@@H]1[C@@H](N(Cc2ccc(-c3cccc(C(F)(F)F)c3)o2)C(=O)c2ccc(C)cc2)c2cc(OCCCO)ccc2N1C(=O)Cc1ccc(OC)cc1 (stereo partly drawn)
-0.918

---

Record form. Attribute: z-score. Fill in for each entry.
EXPERIMENTAL PROTOCOL: HepG2 cell viability effects, profiling panel, calcein-AM fluorescence, 48 h, basal (AID 1164); note: test concentration not given here
TEST SETTINGS: higher = more signal
Answer using only a numeral; do not append any unit.

If you can, please state the reported z-score value of CC(=O)NCCCC[C@@H]1NC(=O)[C@H]2C[C@@H](C(=O)NCCCCCNC(=O)CS)[C@@H](c3cccc(OCCO)c3)N2C1=O .
0.0877

Quick one: z-score for COC(=O)C1=CC(CCCO)=CC(C)N(Cc2cccc(OC(F)(F)F)c2)C=C1C(=O)OC (stereo not given) ?
0.966

If you can, please state the reported z-score value of O=C1N(CCS(=O)(=O)c2ccccc2)Cc2ccccc2[C@@H]2OC(c3ccc(OCCCO)cc3)=N[C@]12CCS(=O)(=O)c1ccccc1 .
0.345

Which z-score is listed for C=CCN1C(=O)[C@@]2(O[C@@H](CCO)[C@H]([Si](C)(C)c3ccc(OC)cc3)[C@H]2C)c2cc(N3CCOC3=O)ccc21 ?
-4.75

State the recorded z-score for this entry: O=C(N1CCOCC1)[C@@]1(CCS(=O)(=O)c2ccccc2)N=C(c2ccc(OCCCO)cc2)O[C@H]1c1ccccc1
0.491

---

Test system: Human papillomavirus type 1a protein E7 (residues 44-93)
EXPERIMENTAL PROTOCOL: HPV1a E7 fragment binders on microarrays, primary screen, biochemical, small-molecule microarray, residues 44-93, 635 nm fluorescence (AID 1108);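 note: E7 fragment applied at 1 µg/mL in TBST for 1 h at 4 C; score combines spot fluorescence with its signal to noise ratio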
TEST SETTINGS: small-molecule microarray binding, fluorescence 635 nm; higher = more signal
Please use t whenever composite z-score is not below 0.2, and f whenever it is.

Record [N-]=[N+]=NCc1ccccc1C[C@]1(C(=O)N2CCOCC2)COC(c2ccc(OCCCO)cc2)=N1 ; criterion: composite z-score no lower than 0.2. Met?
t

Kindly determine if composite z-score recorded for C=C[C@@H](C)[C@H](O)c1ccc(OCCO)cc1 is above or exactly 0.2.
f

# bool: composite z-score of CN(C)C(=O)[C@@]1(CCC(=O)OC(C)(C)C)N=C(c2ccc(OCCCO)cc2)O[C@H]1c1ccccc1CN=[N+]=[N-] >= 0.2
t

Assess whether reported composite z-score for COc1cc2c(cc1O)C(c1ccc(CN3CCCC3)cc1)N(C)CC2 (stereo not drawn) sits at 0.2 or higher.
f

Answer whether composite z-score of CCCNC(=O)[C@@]1(C)c2ccccc2C(=O)N(Cc2ccccc2)[C@H]1c1ccc(CO)cc1 is greater than or equal to 0.2.
t

Has CCOC(=O)C=Cc1ccccc1O a recorded composite z-score greater than or equal to 0.2?
t

Decide: is the reported value of composite z-score for C=C(COC)/C(=C/C[C@@H](OC(=O)c1ccncc1)c1ccccc1OCCO)c1cc(C(=O)OC)ccc1OC equal to or greater than 0.2?
f

Please tell me: is the compound CC1CC/C=C\[C@H]2OC34C=CCN(C(C)(C)C)C(=O)[C@H]3N(C(CO)C(C)C)C(=O)[C@@H]4C2C(=O)O1 (stereo partly drawn) at or over 0.2 in terms of composite z-score?
f

Does the compound C=C(CCCC)C(=O)CC[C@@H](OC(=O)c1cccnc1)c1ccc(OCCO)cc1 have recorded composite z-score that is 0.2 or more?
t

I'd appreciate it if you could say whether O=C1[C@@H]2[C@@H](CC(COc3ccccc3)=C3[C@@H](CCc4ccccc4)OB(O)C[C@@H]32)C(=O)N1Cc1ccccc1 has composite z-score at least equal to 0.2.
f

Determine whether measured composite z-score meets or exceeds 0.2 for COc1ccc([Si](C)(C)[C@H]2[C@H](CCO)O[C@@]3(C(=O)N(Cc4ccc(N5C(=O)c6ccccc6Oc6ccccc65)cc4)c4ccccc43)[C@@H]2C)cc1
f

Please check the record CC(C)C[C@@H]1NC(=O)[C@@]23C(=O)N[C@@H](Cc4ccccc4)C2[C@H](C)[C@@]2(C)O[C@H]2C3/C=C/C/C=C\CNC(=O)[C@@H](C)NC1=O (stereo partly drawn) and state if its composite z-score is at or above 0.2.
f

Has CC(C)[C@H]1NC(=O)[C@@]23C(=O)N[C@@H](Cc4ccccc4)C2[C@H](C)[C@@]2(C)O[C@H]2C3/C=C/CCC/C=C/CNC(=O)[C@H](Cc2ccccc2)NC1=O (stereo partly drawn) a recorded composite z-score greater than or equal to 0.2?
t

Check if composite z-score >= 0.2 (inclusive). Item: C[C@@H]1ON(c2ccc(I)cc2)[C@H](c2ccc(OC(=O)OC(C)(C)C)cc2)[C@H]1C(=O)N1C(=O)OC[C@H]1Cc1ccccc1
t

Threshold query (composite z-score >= 0.2) on C=CCC(OC(C)=O)[C@@H]1[C@@H](N(Cc2ccc(-c3cccc(C(F)(F)F)c3)o2)C(=O)c2cccc3ccccc23)c2cc(OCCCO)ccc2N1C(=O)Cc1ccc(OC)cc1 (stereo partly drawn)
t

Has COC(=O)c1c2oc(c1C(=O)OC)C(=O)N1CCC[C@H]1Cn1nncc1CN(Cc1ccccc1)C(=O)N[C@H](CO)CC2 a recorded composite z-score greater than or equal to 0.2?
t

Record CC(C)=CCCC(C)=CC(O)C1C=CC2C(=O)N(c3ccccc3)C(=O)C2N1Nc1ccccc1F (stereo not drawn) ; criterion: composite z-score no lower than 0.2. Met?
t

Please indicate if the recorded composite z-score for C=C(COC)C(=O)CC[C@H](OC(=O)c1cccnc1)c1ccc(CO)o1 meets or exceeds 0.2.
f

Quick check, composite z-score >= 0.2? C=C(COC)C(=O)CC[C@H](OC(C)=O)c1ccc(OCCO)cc1
f

Please tell me: is the compound CC(C)CCC[C@@H](C)[C@H]1CC[C@@]2(C)C3=C(CC[C@]12C)[C@@]1(C)CC[C@H](OC(=O)c2ccccc2)C(C)(C)C1CC3 (stereo partly drawn) at or over 0.2 in terms of composite z-score?
t

API: above_or_equal(metric=composite z-score, cutoff=0.2) for item COc1ccc([Si](C)(C)[C@@H]2[C@@H](CCn3cc([C@H](O)c4ccccc4)nn3)O[C@]3(C(=O)N(Cc4cccc(N5C(=O)c6cccc7cccc5c67)c4)c4ccccc43)[C@H]2C)cc1
t

Does the compound COCCCNC(=O)[C@@]1(c2ccc([N+](=O)[O-])cc2)CC(=O)N(C(C)C)[C@@H]1c1ccc(CO)cc1 have recorded composite z-score that is 0.2 or more?
f

Given the entry COC(=O)C(CC#Cc1ccc2c(c1)[C@]1(C(=O)N2)[C@H](c2ccc(OCCO)cc2)N2[C@H](c3ccccc3)[C@H](c3ccccc3)OC(=O)[C@H]2[C@@H]1C(=O)N1CCN(c2ncccn2)CC1)C(=O)OC , answer whether its composite z-score meets or surpasses 0.2.
t

Form field: composite z-score at least 0.2? Entry: O=C1N[C@@H](Cc2ccccc2)C(=O)N2[C@@H]1C[C@@H](C(=O)O)[C@H]2c1ccc(O)cc1
t

Quick check, composite z-score >= 0.2? O=C1C2C=CC(C(O)c3ccc(I)cc3)N(Nc3ccccc3)C2C(=O)N1c1ccccc1 (stereo not drawn)
t

Is the recorded value of composite z-score equal to or greater than 0.2 for this compound? CC=CC(O)C1C=CC2C(=O)NC(=O)C2N1Nc1ccccn1 (stereo not drawn)
t

Decide: composite z-score of [N-]=[N+]=NCc1ccccc1[C@@H]1OC(c2ccc(OCCCO)cc2)=N[C@]1(Cc1ccccc1N=[N+]=[N-])C(=O)NCCN1CCOCC1 >= 0.2?
t

Has O=C(CS)NCCCCCCNC(=O)[C@@H]1C[C@@H]2C(=O)NCC(=O)N2[C@@H]1c1ccc(O)cc1 a recorded composite z-score greater than or equal to 0.2?
f
